The origin of these recorded values is patent US9670227B2.

systemName: Mcl-1 protein (UniProtKB primary accession number: Q07820) (Homo sapiens, UniProt Q07820)
Sequence (Q07820 whole entry): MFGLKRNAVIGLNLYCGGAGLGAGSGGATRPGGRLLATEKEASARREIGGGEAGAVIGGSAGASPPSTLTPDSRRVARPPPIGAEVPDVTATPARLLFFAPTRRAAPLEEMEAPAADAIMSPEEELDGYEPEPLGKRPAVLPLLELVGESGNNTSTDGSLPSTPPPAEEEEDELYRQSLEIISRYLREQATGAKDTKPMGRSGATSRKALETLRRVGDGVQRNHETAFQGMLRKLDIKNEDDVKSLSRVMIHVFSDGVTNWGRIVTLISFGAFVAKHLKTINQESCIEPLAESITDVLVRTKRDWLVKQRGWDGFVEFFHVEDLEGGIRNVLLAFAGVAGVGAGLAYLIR
protocolSummary: Inhibition of Mcl-1 by fluorescence polarisation, Method 1
Type: binding
conditionDescription: fluorescence polarisation; Method 1, or Method 2; read-out: IC50 (M) Mcl-1 FP
reportedEndpoint: IC50 (M)

>>> reportedresult("COCOc1cc(F)ccc1CC(Oc1ncnc2sc(-c3ccc(F)o3)c(-c3ccc(OCCN4CCN(C)CC4)c(Cl)c3C)c12)C(=O)O (stereo not drawn) [Example 690]")
"2.3e-08"
>>> reportedresult("COc1nccc(COc2ccccc2CC(Oc2ncnc3sc(-c4ccc(F)c(F)c4)c(-c4ccc(OCCN5CCN(C)CC5)c(Cl)c4C)c23)C(=O)O)n1 (stereo not drawn) [Example 706]")
"3.6e-09"
>>> reportedresult("COc1ccc(-c2c(-c3ccc(F)cc3)sc3ncnc(OC(Cc4ccccc4OCCN(C)C)C(=O)O)c23)c(C)c1Cl (stereo not drawn) [Example 662]")
"2.7e-07"

(I) COCCOC(=O)C(Cc1ccccc1OCc1ccnc(-c2ccccc2OC)n1)Oc1ncnc2sc(-c3ccc(F)cc3)c(-c3ccc(OCCN4CCN(C)CC4)c(Cl)c3C)c12 (stereo not drawn) [Example 789]
(II) Cc1c(-c2c(-c3cccc(F)c3F)sc3ncnc(OC(Cc4ccccc4OCc4ccnc(C(F)(F)F)n4)C(=O)O)c23)ccc(OCCN2CCN(C)CC2)c1Cl (stereo not drawn) [Example 705]
(III) CCN1CCN(CCOc2ccc(-c3c(-c4ccco4)sc4ncnc(OC(Cc5ccccc5OCCOC)C(=O)O)c34)c(C)c2Cl)CC1 (stereo not drawn) [Example 669]
Prompt: List items by IC50 in falling order. Please respond by ranking the labels in the order requested.
Response: I, II, III
